Origin of the recorded values: patent US20220235123A1

Please go through the items and note down their Kd.
- systemTested: T1, recombinant human vascular endothelial growth factor (hVEGF) 121 (human, UniProt P15692 27-147)
- T1 construct: mature; also called human VEGF-A121; hVEGF 121 isoform
- T1 sequence (looked up): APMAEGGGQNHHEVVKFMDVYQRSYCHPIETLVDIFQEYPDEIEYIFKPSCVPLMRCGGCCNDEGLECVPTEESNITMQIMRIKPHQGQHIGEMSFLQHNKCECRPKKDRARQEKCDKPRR
- protocol: competitive Fab-ELISA (hVEGF)
Report as a plain number; the unit nM is understood.

Input FF0117-A11 (Fab, V domains shown, fourth generation Fab from the library based on FF0188-H5) VH: EVQLVESGGGLVQPGGSLRLSCAASGFDLFHYSIHWVRQAPGKGLEWVAYIYPSYGYTYYADSVKGRFTISADTSKNTAYLQMNSLRAEDTAVYYCARHAWYWGWALDYWGQGTLVTVSS VL: DIQMTQSPSSLSASVGDRVTITCRASQSVSSAVAWYQQKPGKAPKLLIYSASSLYSGVPSRFSGSRSGTDFTLTISSLQPEDFATYYCQQRGWYLFTFGQGTKVEIK . Output Kd: 0.03

Input FF0188-H5 (Fab, V domains shown, third generation Fab, parent of the FF0117 library; also called FF0188-H5(2)) VH: EVQLVESGGGLVQPGGSLRLSCAASGFDLFHYSIHWVRQAPGKGLEWVAYIYPSYGYTYYADSVKGRFTISADTSKNTAYLQMNSLRAEDTAVYYCARHAWYSGWAMDYWGQGTLVTVSS VL: DIQMTQSPSSLSASVGDRVTITCRASQSVSSAVAWYQQKPGKAPKLLIYSASSLYSGVPSRFSGSRSGTDFTLTISSLQPEDFATYYCQQRGWYLFTFGQGTKVEIK . Output Kd: 0.4

Input FF0117-A8 (Fab, V domains shown, fourth generation Fab from the library based on FF0188-H5) VH: EVQLVESGGGLVQPGGSLRLSCAASGFDLFHYSIHWVRQAPGKGLEWVAYIYPSYGYTYYADSVKGRFTISADTSKNTAYLQMNSLRAEDTAVYYCARHAWYSGWALDYWGQGTLVTVSS VL: DIQMTQSPSSLSASVGDRVTITCRASQSVSSAVAWYQQKPGKAPKLLIYSASSLYSGVPSRFSGSRSGTDFTLTISSLQPEDFATYYCQQRGWYLFTFGQGTKVEIK . Output Kd: 0.13
